Value source: ChEMBL document CHEMBL5537115

System: Escherichia coli
Protocol Details: Antibacterial activity against penicillin-susceptible Escherichia coli ATCC25922 assessed as bacterial growth inhibition incubated for 20 hrs by CLSI based broth microdilution method
Format: functional
Threshold 20 µg/mL. MIC below it: 1 (yes). MIC at it or above: 0 (no).

Criterion: MIC strictly below 20 µg/mL. Is it met by `CCCCCCOc1ccc(/C=C/c2cc(-c3ccccc3)[n+](C)cc2-c2ccccc2)cc1.[I-]` ?
1 (yes)

And then `C[n+]1cc(-c2ccccc2)c(/C=C/c2ccc(Cl)c(Cl)c2)cc1-c1ccc(C(C)(C)C)cc1.[I-]` , what is it?
0 (no)

Ok, now `Cc1ccccc1-c1c[n+](C)c(-c2ccc(C(C)(C)C)cc2)cc1/C=C/c1ccc(O)cc1.[I-]`
0 (no)

Record: `C[n+]1cc(-c2ccccc2)c(/C=C/c2ccc(O)cc2)cc1-c1ccccc1.[I-]`
0 (no)

###

Tested on: Staphylococcus aureus
Protocol Details: Antibacterial activity against methicillin-resistant Staphylococcus aureus ATCC43300 assessed as bacterial growth inhibition incubated for 20 hrs by CLSI based broth microdilution method
Format: functional
Please respond with Satisfied when measured MIC is strictly beneath 2 µg/mL, and with Not satisfied in all other cases.

>  <Query Smiles>
C[n+]1cc(-c2ccccc2)c(/C=C/c2ccc(N3CCCCC3)cc2)cc1-c1ccc2ccccc2c1.[I-]

>  <Assigned Category>
Satisfied

$$$$

Would you kindly look at the next entry?
In plain terms, does `C[n+]1cc(-c2ccccc2)c(/C=C/c2ccc(N3CCCCC3)cc2)cc1-c1ccc(C(C)(C)C)cc1.[I-]` come in under 2 µg/mL for MIC?
Satisfied

###

Tested on: Bacillus subtilis
Protocol Details: Antibacterial activity against penicillin-susceptible Bacillus subtilis ATCC9372 assessed as bacterial growth inhibition incubated for 20 hrs by CLSI based broth microdilution method
Assay type: functional
Metric Name: log10 MIC (log10 of the value in µg/mL)
// stored as log10 of MIC expressed in µg/mL

>  <Query Smiles>
CC(C)c1ccc(/C=C/c2cc(-c3ccccc3)c[n+](C)c2-c2ccccc2)cc1.[I-]

>  <Metric Name>
log10 MIC

>  <Obs Value>
0.00

$$$$
>  <Query Smiles>
CCCCOc1ccc(/C=C/c2cc(-c3ccccc3)c[n+](C)c2-c2ccccc2)cc1.[I-]

>  <Metric Name>
log10 MIC

>  <Obs Value>
0.00

$$$$
>  <Query Smiles>
C[n+]1cc(-c2ccccc2)cc(/C=C/c2ccc(Cl)cc2)c1-c1ccccc1.[I-]

>  <Metric Name>
log10 MIC

>  <Obs Value>
0.60

$$$$
>  <Query Smiles>
C[n+]1cc(-c2ccccc2)c(/C=C/c2ccc(F)cc2)cc1-c1ccc(C(C)(C)C)cc1.[I-]

>  <Metric Name>
log10 MIC

>  <Obs Value>
0.00

$$$$
>  <Query Smiles>
CCOc1ccc(/C=C/c2cc(-c3ccccc3)c[n+](C)c2-c2ccccc2)cc1.[I-]

>  <Metric Name>
log10 MIC

>  <Obs Value>
0.60

$$$$
>  <Query Smiles>
CCCCCCOc1ccc(/C=C/c2cc(-c3ccccc3)[n+](C)cc2-c2ccccc2)cc1.[I-]

>  <Metric Name>
log10 MIC

>  <Obs Value>
-0.30

$$$$

Item under review: `C[n+]1cc(-c2ccccc2)cc(/C=C/c2ccc(C(C)(C)C)cc2)c1-c1ccccc1.[I-]` . Reported log10 MIC?
-0.30

Then this compound: `COc1ccc(/C=C/c2cc(-c3ccccc3)c[n+](C)c2-c2ccccc2)cc1.[I-]`
0.90

Try this compound next: `C[n+]1cc(-c2ccccc2)c(/C=C/c2ccc(O)cc2)cc1-c1ccc(C(C)(C)C)cc1.[I-]`
0.00

Now try `CC1(C)S[C@@H]2[C@H](NC(=O)[C@H](NC(=O)N3CCN(S(C)(=O)=O)C3=O)c3ccccc3)C(=O)N2[C@H]1C(=O)O` .
0.60

Same question, `CCCCCCOc1ccc(/C=C/c2cc(-c3ccccc3)c[n+](C)c2-c2ccccc2)cc1.[I-]` this time
0.30

// query: `C[n+]1cc(-c2ccccc2)cc(/C=C/c2cccc(Br)c2)c1-c1ccccc1.[I-]`
0.60

Query `CN[C@H](CC(C)C)C(=O)N[C@H]1C(=O)N[C@@H](CC(N)=O)C(=O)N[C@H]2C(=O)N[C@H]3C(=O)N[C@H](C(=O)N[C@H](C(=O)O)c4cc(O)cc(O)c4-c4cc3ccc4O)[C@H](O)c3ccc(c(Cl)c3)Oc3cc2cc(c3O[C@@H]2O[C@H](CO)[C@@H](O)[C@H](O)[C@H]2O[C@H]2C[C@](C)(N)[C@H](O)[C@H](C)O2)Oc2ccc(cc2Cl)[C@H]1O` next
-0.30

Would you kindly repeat that for `C[n+]1cc(-c2ccccc2)c(/C=C/c2ccc(F)cc2)cc1-c1ccccc1.[I-]` ?
-0.30

Next record, please: `Cc1ccccc1-c1c[n+](C)c(-c2ccc(C(C)(C)C)cc2)cc1/C=C/c1ccc(N(C)C)cc1.[I-]`
-0.30

###

Item-by-item account of MIC
Test system: Klebsiella pneumoniae
Protocol Details: Antibacterial activity against Klebsiella pneumoniae ATCC BAA-1902 assessed as bacterial growth inhibition incubated for 20 hrs by CLSI based broth microdilution method
Type: functional

Some compounds with recorded MIC:
>  <Compound>
COc1cc(/C=C/c2cc(-c3ccccc3)c[n+](C)c2-c2ccccc2)cc(OC)c1OC.[I-]

>  <Metric Name>
MIC

>  <Obs Value>
> 64 µg/mL

$$$$
>  <Compound>
C[n+]1cc(-c2ccccc2)c(/C=C/c2ccc(F)cc2)cc1-c1ccc(C(C)(C)C)cc1.[I-]

>  <Metric Name>
MIC

>  <Obs Value>
8 µg/mL

$$$$
>  <Compound>
C[n+]1cc(-c2ccccc2)cc(/C=C/c2ccc(C(C)(C)C)cc2)c1-c1ccccc1.[I-]

>  <Metric Name>
MIC

>  <Obs Value>
32 µg/mL

$$$$

Reported MIC, compound `C[n+]1cc(-c2ccccc2)cc(/C=C/c2ccccc2[N+](=O)[O-])c1-c1ccccc1.I` : ____
> 64 µg/mL

Now the compound COc1ccc2cc3[n+](cc2c1OC)CCc1cc2c(cc1-3)OCO2 [BERBERINE]
> 64 µg/mL

Param item: `C[n+]1cc(-c2ccccc2)c(/C=C/c2ccc(N3CCCC3)cc2)cc1-c1ccc2ccccc2c1.[I-]`
16 µg/mL

###

Protocol Details: Hemolytic activity in mouse erythrocytes at 16 ug/ml incubated for 1 hr by absorbance based assay
Assay type: toxicity, cell-based, Erythrocyte
Condition: at 16 µg/mL, read-out: Activity
Metric Name: hemolysis at 1 h, 16 ug/ml

Example compounds with recorded hemolysis at 1 h, 16 ug/ml:
>  <Query Smiles>
C[n+]1cc(-c2ccccc2)c(/C=C/c2ccc(N3CCCC3)cc2)cc1-c1ccc(C(C)(C)C)cc1.[I-]

>  <hemolysis at 1 h, 16 ug/ml>
4.65%

$$$$
>  <Query Smiles>
C[n+]1cc(-c2ccccc2)c(/C=C/c2ccc(C(C)(C)C)cc2)cc1-c1ccc(C(C)(C)C)cc1.[I-]

>  <hemolysis at 1 h, 16 ug/ml>
6.37%

$$$$

Now let's try a different one.
Which hemolysis at 1 h, 16 ug/ml is reported for this compound? `Cc1ccccc1-c1c[n+](C)c(-c2ccc(C(C)(C)C)cc2)cc1/C=C/c1ccc(C(C)(C)C)cc1.[I-]`
18.9%

###

# maps each entry to its MIC
System: Enterococcus faecalis
Protocol Details: Antibacterial activity against vancomycin-susceptible Enterococcus faecalis ATCC29212 assessed as bacterial growth inhibition incubated for 20 hrs by CLSI based broth microdilution method
Assay type: functional
I only need the number, in µg/mL, no unit after it.

>  <Query Smiles>
C[n+]1cc(-c2ccccc2)c(/C=C/c2ccc(C(C)(C)C)cc2)cc1-c1ccccc1.[I-]

>  <MIC (µg/mL)>
4

$$$$
>  <Query Smiles>
Cc1ccccc1-c1c[n+](C)c(-c2ccc(C(C)(C)C)cc2)cc1/C=C/c1ccc(F)cc1.[I-]

>  <MIC (µg/mL)>
0.5

$$$$
>  <Query Smiles>
CCc1ccc(/C=C/c2cc(-c3ccccc3)c[n+](C)c2-c2ccccc2)cc1.[I-]

>  <MIC (µg/mL)>
16

$$$$
>  <Query Smiles>
C[n+]1cc(-c2ccccc2)cc(/C=C/c2ccc(C(C)(C)C)cc2)c1-c1ccccc1.[I-]

>  <MIC (µg/mL)>
4

$$$$
>  <Query Smiles>
CC(C)c1ccc(/C=C/c2cc(-c3ccc(C(C)(C)C)cc3)[n+](C)cc2-c2ccccc2)cc1.[I-]

>  <MIC (µg/mL)>
1

$$$$
>  <Query Smiles>
C[n+]1cc(-c2ccccc2)c(/C=C/c2ccc(C(C)(C)C)cc2)cc1-c1ccc2ccccc2c1.[I-]

>  <MIC (µg/mL)>
1

$$$$

// next item, MIC requested
Given the entry `C[n+]1cc(-c2ccccc2)cc(/C=C/c2cccc(Br)c2)c1-c1ccccc1.[I-]` , what MIC was observed with Enterococcus faecalis?
16
